Origin of measurements: patent US20120282637A1

Entries and their Kd
- EXPERIMENTAL_SYSTEM: T1, sRAGE (V-C1-C2) lot LP08062 (human, UniProt Q15109 23-331, limits assumed)
- T1 construct: domain: V-C1-C2; also called Human RAGE; LP08062 (Rage)
- T1 sequence (Q15109 23-331 limits assumed): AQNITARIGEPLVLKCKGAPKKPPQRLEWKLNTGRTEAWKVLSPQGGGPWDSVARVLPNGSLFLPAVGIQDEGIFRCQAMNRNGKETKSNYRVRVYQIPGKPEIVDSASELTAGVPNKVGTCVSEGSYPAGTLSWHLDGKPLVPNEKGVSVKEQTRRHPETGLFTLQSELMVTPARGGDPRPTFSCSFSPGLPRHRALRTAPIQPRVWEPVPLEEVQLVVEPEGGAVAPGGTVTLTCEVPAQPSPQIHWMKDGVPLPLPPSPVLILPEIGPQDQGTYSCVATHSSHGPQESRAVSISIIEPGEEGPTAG
- METHOD: SPR (Biacore), mAb captured on anti-mouse Fc, sRAGE 15 nM, Langmuir 1:1
MEASUREMENT_KIND: Kd (nM)

{"columns": ["BINDER", "MEASUREMENT_KIND", "TEST_VALUE"],
 "data": [
  ["253 RAGE-1 (antibody, V domains shown, Anti-RAGE monoclonal antibody from a hybridoma, captured by anti-mouse Fc; also called LP08127) VH: QVQLQQSGPELVKPGASVRISCKASGYTFTDYYIHWVKQRPGQGLEWIGWIYPGNVITKYNEKFKGKATLTADKSSSTAYMQLSSLTSEDSAVYFCARYDYDYAMDYWGQGTSVTVSS VL: DIVMSQSPSSLAVSVGEKVTMSCKSSQTLLYSSNQKNYLAWYQQKPGQSLKLLIYWASTRESGVPDRFAGSGSGTDFTLTISSVKAEDLAVYYCQQYFGYPYTFGGGTKLEIK", "Kd", 0.512],
  ["95 RAGE-1 (antibody, V domains shown, Anti-RAGE monoclonal antibody from a hybridoma, captured by anti-mouse Fc; also called Protein 95 RAGE-1) VH: QVQLQQPGAELVKPGASVKLSCKASGYTFTSYWMHWVKQRPGQGLEWIGESNPSNGRTNYNEKFKNKATLTVDKSSSTAYMQLSSLTSEDSAVYYCARAPYYGFDYWGQGTTLTVSS VL: QAVVTQESALTTSPGETVTLTCRSSTGAVTTSNYANWVQEKPDHLFTGLTGGTNNRAPGVPARFSGSLIGDKAALTITGAQTEDEAIYFCALWYSNHWVFGGGTKLTVL", "Kd", 0.462],
  ["152 RAGE-1 (antibody, V domains shown, Anti-RAGE monoclonal antibody from a hybridoma, captured by anti-mouse Fc; also called LP08104; Protein 152 RAGE-1) VH: DVQLQESGPDLVKPSQSLSLTCTVTGYSITSGYSWHWIRQFPGNKLEWMGYIHYSGSTNYNPSLKSRISITRDTSKNQFFLQLNSVTTEDTATYYCARGGDFAYWGQGTLVTVSA VL: DIVLTQSPASLAVSLGQRATISCRASKSVGTSDSSYMHWYQQKPGQPPKLLIYLASNLESGVPARFSGSGSGTDFTLNIHPVEEEDAATYYCQHSRELYTFGGGTKLEIK", "Kd", 0.687]
]}
